Tested on: MV4-11 (leukemia)
Test: Cell proliferation inhibition in vitro, CellTiter-Glo, MV4-11
Type: cell-based
Settings: Homo sapiens; MV4-11 cells, 120 hours, CellTiter-Glo; read-out: MV4-11/IC50/μM
Mark rule met only for IC50 values smaller than 0.2 µM; exact matches and larger values are rule not met.

COc1ccc(-n2nc(C)c(-c3cc(N4CCOC[C@H]4C)nc(-c4cc(F)cc5[nH]ccc45)n3)c2C)cn1 [Compound A5] = rule not met
CNc1nc2ccccc2n1-c1nc(-c2c(C)nn(-c3cnc(N)c(F)c3)c2C)cc(N2CCOC[C@H]2C)n1 [Compound B5] = rule not met
CNc1nc2ccccc2n1-c1nc(-c2c(C)nn(-c3cccnc3)c2C)cc(N2CCOC[C@H]2C)n1 [Compound B6] = rule not met
Cc1nn(-c2cncc(O)c2)c(C)c1-c1cc(N2CCOC[C@H]2C)nc(-c2cccc3[nH]ccc23)n1 [Compound A23] = rule met
CNc1nc2ccccc2n1-c1nc(-c2c(C)nn(-c3cncc(C#N)c3)c2C)cc(N2CCOC[C@H]2C)n1 [Compound B4] = rule not met

----------
Target: ATR kinase (Homo sapiens, UniProt Q13535)
Sequence (Q13535 whole entry): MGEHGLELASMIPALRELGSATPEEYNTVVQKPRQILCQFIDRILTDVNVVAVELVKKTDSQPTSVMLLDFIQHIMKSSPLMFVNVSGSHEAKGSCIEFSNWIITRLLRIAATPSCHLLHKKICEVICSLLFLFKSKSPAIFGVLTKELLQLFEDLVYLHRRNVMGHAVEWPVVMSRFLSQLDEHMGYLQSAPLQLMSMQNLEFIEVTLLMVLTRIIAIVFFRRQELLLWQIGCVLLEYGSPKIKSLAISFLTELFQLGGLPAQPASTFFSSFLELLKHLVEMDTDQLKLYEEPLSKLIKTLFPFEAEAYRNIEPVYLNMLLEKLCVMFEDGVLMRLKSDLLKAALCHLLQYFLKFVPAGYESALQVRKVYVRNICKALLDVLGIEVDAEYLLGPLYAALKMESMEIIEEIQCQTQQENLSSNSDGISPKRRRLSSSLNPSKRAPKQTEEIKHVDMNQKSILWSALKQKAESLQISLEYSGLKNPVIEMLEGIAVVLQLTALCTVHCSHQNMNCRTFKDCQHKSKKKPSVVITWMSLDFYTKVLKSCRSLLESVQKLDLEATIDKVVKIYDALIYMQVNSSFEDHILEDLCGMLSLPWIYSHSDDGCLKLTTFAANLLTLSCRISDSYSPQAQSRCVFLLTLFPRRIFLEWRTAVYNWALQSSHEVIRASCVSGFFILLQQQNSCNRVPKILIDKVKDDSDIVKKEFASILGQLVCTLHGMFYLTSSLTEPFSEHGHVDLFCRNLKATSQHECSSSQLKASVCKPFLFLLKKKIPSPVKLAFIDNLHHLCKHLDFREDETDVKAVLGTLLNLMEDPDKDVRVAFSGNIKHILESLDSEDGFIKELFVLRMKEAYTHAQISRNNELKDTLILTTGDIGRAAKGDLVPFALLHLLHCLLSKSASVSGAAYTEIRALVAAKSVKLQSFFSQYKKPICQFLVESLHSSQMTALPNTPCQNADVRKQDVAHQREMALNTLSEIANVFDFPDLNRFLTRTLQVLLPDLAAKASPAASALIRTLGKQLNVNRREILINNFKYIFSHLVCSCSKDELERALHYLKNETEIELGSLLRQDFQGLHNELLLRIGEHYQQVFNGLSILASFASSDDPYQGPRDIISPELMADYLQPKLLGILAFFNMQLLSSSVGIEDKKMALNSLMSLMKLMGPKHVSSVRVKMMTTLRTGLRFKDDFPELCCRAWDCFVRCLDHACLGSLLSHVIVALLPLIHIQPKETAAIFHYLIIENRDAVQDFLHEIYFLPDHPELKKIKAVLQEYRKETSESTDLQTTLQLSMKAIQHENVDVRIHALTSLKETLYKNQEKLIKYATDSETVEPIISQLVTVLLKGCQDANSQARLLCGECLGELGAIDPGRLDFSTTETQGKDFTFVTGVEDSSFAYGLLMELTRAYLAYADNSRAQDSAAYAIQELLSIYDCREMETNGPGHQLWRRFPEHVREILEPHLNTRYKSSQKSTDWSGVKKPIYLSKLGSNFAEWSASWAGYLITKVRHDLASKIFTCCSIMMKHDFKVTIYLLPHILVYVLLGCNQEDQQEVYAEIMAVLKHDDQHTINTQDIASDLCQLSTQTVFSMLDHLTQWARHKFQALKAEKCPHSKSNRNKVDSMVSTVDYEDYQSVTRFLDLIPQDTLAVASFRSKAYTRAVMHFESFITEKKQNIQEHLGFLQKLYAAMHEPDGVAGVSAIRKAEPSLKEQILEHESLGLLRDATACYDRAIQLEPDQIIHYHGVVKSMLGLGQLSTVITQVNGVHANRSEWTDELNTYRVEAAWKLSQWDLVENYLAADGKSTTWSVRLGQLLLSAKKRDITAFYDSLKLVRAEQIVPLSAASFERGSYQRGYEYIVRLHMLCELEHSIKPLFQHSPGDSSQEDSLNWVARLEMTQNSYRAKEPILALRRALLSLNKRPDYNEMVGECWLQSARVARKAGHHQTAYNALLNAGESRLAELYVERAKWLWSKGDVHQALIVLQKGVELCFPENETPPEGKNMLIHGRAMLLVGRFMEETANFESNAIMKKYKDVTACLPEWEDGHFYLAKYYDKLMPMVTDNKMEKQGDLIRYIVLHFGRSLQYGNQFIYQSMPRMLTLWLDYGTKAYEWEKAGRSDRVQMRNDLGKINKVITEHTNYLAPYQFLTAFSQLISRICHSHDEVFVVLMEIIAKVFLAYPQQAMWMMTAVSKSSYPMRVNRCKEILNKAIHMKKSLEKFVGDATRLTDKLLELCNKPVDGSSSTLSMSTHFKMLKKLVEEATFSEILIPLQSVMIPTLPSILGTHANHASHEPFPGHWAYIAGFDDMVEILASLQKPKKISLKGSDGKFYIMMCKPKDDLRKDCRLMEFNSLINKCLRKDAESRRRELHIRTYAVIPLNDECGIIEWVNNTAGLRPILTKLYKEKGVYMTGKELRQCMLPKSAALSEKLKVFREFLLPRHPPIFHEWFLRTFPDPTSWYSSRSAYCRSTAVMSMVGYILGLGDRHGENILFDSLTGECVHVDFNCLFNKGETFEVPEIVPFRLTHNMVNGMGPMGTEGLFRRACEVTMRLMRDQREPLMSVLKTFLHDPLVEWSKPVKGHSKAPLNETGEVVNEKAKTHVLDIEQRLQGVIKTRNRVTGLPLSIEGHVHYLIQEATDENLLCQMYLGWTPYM
Sequence (Q8WXE1 whole entry partner): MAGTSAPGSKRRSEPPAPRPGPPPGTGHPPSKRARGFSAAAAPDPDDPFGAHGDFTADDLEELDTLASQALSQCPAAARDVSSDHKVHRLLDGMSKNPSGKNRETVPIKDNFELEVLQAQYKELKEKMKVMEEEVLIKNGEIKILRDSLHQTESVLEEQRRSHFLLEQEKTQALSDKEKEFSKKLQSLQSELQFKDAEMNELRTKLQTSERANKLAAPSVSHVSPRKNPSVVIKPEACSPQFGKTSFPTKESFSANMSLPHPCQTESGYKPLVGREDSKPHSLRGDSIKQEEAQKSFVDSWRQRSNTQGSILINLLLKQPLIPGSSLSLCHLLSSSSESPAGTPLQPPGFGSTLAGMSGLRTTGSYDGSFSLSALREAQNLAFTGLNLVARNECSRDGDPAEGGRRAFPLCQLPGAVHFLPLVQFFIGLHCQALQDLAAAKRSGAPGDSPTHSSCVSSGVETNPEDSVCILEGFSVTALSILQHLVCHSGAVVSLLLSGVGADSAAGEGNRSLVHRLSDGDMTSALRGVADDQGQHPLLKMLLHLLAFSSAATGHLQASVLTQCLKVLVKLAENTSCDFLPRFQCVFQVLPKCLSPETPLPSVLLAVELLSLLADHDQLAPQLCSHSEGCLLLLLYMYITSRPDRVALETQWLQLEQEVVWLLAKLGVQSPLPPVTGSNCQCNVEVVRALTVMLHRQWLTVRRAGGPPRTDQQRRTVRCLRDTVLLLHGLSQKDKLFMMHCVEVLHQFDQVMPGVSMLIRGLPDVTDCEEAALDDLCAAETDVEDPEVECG
Test: Assay of ATR kinase activity (time-resolved fluorescence, phosphorylation of p53-derived protein)
Assay type: biochemical
// class assignment uses IC50 with these ranges: 0: < 6 nM; 1: ≥ 6 nM and < 20 nM; 2: ≥ 20 nM

Cc1nn(-c2cncc(F)c2)c(C)c1-c1cc(N2CCOC[C@H]2C)nc(-c2cccc3[nH]ccc23)n1 = 0
Cc1nn(-c2ccnnc2)c(C)c1-c1cc(N2CCOC[C@H]2C)nc(-c2cc(F)cc3[nH]ccc23)n1 = 0
COc1cncc(-n2nc(C)c(-c3cc(N4CCOC[C@H]4C)nc(-c4cc(F)cc5[nH]ccc45)n3)c2C)c1 = 1
Cc1nn(-c2ccncc2)c(C)c1-c1cc(N2CCOC[C@H]2C)nc(-c2cc(F)cc3[nH]ccc23)n1 = 1
CNc1nc2ccccc2n1-c1nc(-c2c(C)nn(-c3ccc(C#N)nc3)c2C)cc(N2CCOC[C@H]2C)n1 = 2
Cc1nn(-c2cncc(C(F)(F)F)c2)c(C)c1-c1cc(N2CCOC[C@H]2C)nc(-c2cc(F)cc3[nH]ccc23)n1 = 2
CNc1nc2ccccc2n1-c1nc(-c2c(C)nn(-c3ccc(=O)[nH]c3)c2C)cc(N2CCOC[C@H]2C)n1 = 0
Cc1nn(-c2cncc(F)c2)c(C)c1-c1cc(N2CCOC[C@H]2C)nc(-n2c(NCCO)nc3ccccc32)n1 = 1
CNc1nc2ccccc2n1-c1nc(-c2c(C)nn(-c3cccnc3)c2C)cc(N2CCOC[C@H]2C)n1 = 1
Cc1nn(-c2cncc(F)c2)c(C)c1-c1cc(N2CCOC[C@H]2C)nc(-n2c(N)nc3ccccc32)n1 = 0
CNc1nc2ccccc2n1-c1nc(-c2c(C)nn(-c3ccc(OC)nc3)c2C)cc(N2CCOC[C@H]2C)n1 = 2
CNc1nc2ccccc2n1-c1nc(-c2c(C)nn(-c3cncc(C#N)c3)c2C)cc(N2CCOC[C@H]2C)n1 = 1
Cc1nn(-c2cnccn2)c(C)c1-c1cc(N2CCOC[C@H]2C)nc(-c2cc(F)cc3[nH]ccc23)n1 = 1
Cc1c(-c2cc(N3CCOC[C@H]3C)nc(-c3ccnc4[nH]ccc34)n2)c(C(F)(F)F)nn1-c1cncc(F)c1 = 1
COc1ccc(-n2nc(C)c(-c3cc(N4CCOC[C@H]4C)nc(-c4cc(F)cc5[nH]ccc45)n3)c2C)cn1 = 2
CNc1nc2ccccc2n1-c1nc(-c2c(C)nn(-c3cncc(C(N)=O)c3)c2C)cc(N2CCOC[C@H]2C)n1 = 0
Cc1nn(-c2cnccc2F)c(C)c1-c1cc(N2CCOC[C@H]2C)nc(-c2cc(F)cc3[nH]ccc23)n1 = 1
Cc1nn(-c2cncc(F)c2)c(C)c1-c1cc(N2CCOC[C@H]2C)nc(-c2cc(CO)cc3[nH]ccc23)n1 = 0
CNc1nc2ccccc2n1-c1nc(-c2c(C)nn(-c3cncc(Cl)c3)c2C)cc(N2CCOC[C@H]2C)n1 = 2
Cc1nn(-c2ccc(F)nc2)c(C)c1-c1cc(N2CCOC[C@H]2C)nc(-c2cc(F)cc3[nH]ccc23)n1 = 1
CC#Cc1cncc(-n2nc(C)c(-c3cc(N4CCOC[C@H]4C)nc(-n4c(NC)nc5ccccc54)n3)c2C)c1 = 2
Cc1nn(-c2cncc(C#N)c2)c(C)c1-c1cc(N2CCOC[C@H]2C)nc(-c2cc(F)cc3[nH]ccc23)n1 = 1
Cc1nn(-c2cncc(C(N)=O)c2)c(C)c1-c1cc(N2CCOC[C@H]2C)nc(-c2cccc3[nH]ccc23)n1 = 0
Cc1nn(-c2cncc(F)c2)c(C)c1-c1nc(-c2cccc3[nH]ccc23)nc(N2CCOC[C@H]2C)n1 = 1
Cc1nn(-c2cncc(O)c2)c(C)c1-c1cc(N2CCOC[C@H]2C)nc(-c2cccc3[nH]ccc23)n1 = 0
Cc1nn(-c2cncc(F)c2)c(C)c1-c1cc(C23CCOCC2C3)nc(-c2cccc3[nH]ccc23)n1 (stereo not shown) = 1

----------
Assay: In vivo oral administration pharmacokinetics in mice
Settings: mouse
Mark Satisfied only for Tmax values smaller than 2 h; exact matches and larger values are Not satisfied.

CNc1nc2ccccc2n1-c1nc(-c2c(C)nn(-c3cncc(F)c3)c2C)cc(N2CCOC[C@H]2C)n1 [Compound B1] = Not satisfied
Cc1nn(-c2cncc(F)c2)c(C)c1-c1cc(N2CCOC[C@H]2C)nc(-c2cccc3[nH]ccc23)n1 [Compound A17] = Satisfied
Cc1nn(-c2cncc(F)c2)c(C)c1-c1cc(N2CCOC[C@H]2C)nc(-c2ccnc3[nH]ccc23)n1 [Compound A19] = Satisfied
Cc1nn(-c2cncc(F)c2)c(C)c1-c1cc(N2CCOC[C@H]2C)nc(-c2cc(CO)cc3[nH]ccc23)n1 [Compound A22] = Satisfied
Cc1nn(-c2cncc(F)c2)c(C)c1-c1cc(N2CCOC[C@H]2C)nc(-c2cc(F)cc3[nH]ccc23)n1 [Compound A11] = Not satisfied

----------
Experiment: In vivo oral administration pharmacokinetics in mice
Conditions: mouse
PARAMETER MEASURED: half-life (h)

Cc1nn(-c2cncc(F)c2)c(C)c1-c1cc(N2CCOC[C@H]2C)nc(-c2ccnc3[nH]ccc23)n1 = 2.4
Cc1nn(-c2cncc(F)c2)c(C)c1-c1cc(N2CCOC[C@H]2C)nc(-c2cc(F)cc3[nH]ccc23)n1 = 3
Cc1nn(-c2cncc(F)c2)c(C)c1-c1cc(N2CCOC[C@H]2C)nc(-c2cccc3[nH]ccc23)n1 = 2.3
Cc1nn(-c2cncc(F)c2)c(C)c1-c1cc(N2CCOC[C@H]2C)nc(-c2cc(CO)cc3[nH]ccc23)n1 = 1.4
CNc1nc2ccccc2n1-c1nc(-c2c(C)nn(-c3cncc(F)c3)c2C)cc(N2CCOC[C@H]2C)n1 = 4.3

----------
Molecular target: ATR kinase (Homo sapiens, UniProt Q13535)
Experiment: Assay of ATR kinase activity (time-resolved fluorescence, phosphorylation of p53-derived protein)
Format: biochemical
Mark 1 only for IC50 values smaller than 10 nM; exact matches and larger values are 0.

CCc1cncc(-n2nc(C)c(-c3cc(N4CCOC[C@H]4C)nc(-c4cc(F)cc5[nH]ccc45)n3)c2C)c1 = 0
Cc1nn(-c2cncc(Cl)c2)c(C)c1-c1cc(N2CCOC[C@H]2C)nc(-c2ccnc3[nH]ccc23)n1 = 1
Cc1nn(-c2cncc(F)c2)c(C)c1-c1cc(C23CCOCC2C3)nc(-c2cc(F)cc3[nH]ccc23)n1 (stereo not shown) = 0
Cc1ncccc1-n1nc(C)c(-c2cc(N3CCOC[C@H]3C)nc(-c3cc(F)cc4[nH]ccc34)n2)c1C = 1
CNc1nc2ccccc2n1-c1nc(-c2c(C)nn(-c3cncc(F)c3)c2C)cc(N2CCOC[C@H]2C)n1 = 0
Cc1nn(-c2ccc(=O)[nH]c2)c(C)c1-c1cc(N2CCOC[C@H]2C)nc(-n2c(NCCO)nc3ccccc32)n1 = 1
Cc1nn(-c2cnccc2Cl)c(C)c1-c1cc(N2CCOC[C@H]2C)nc(-c2cc(F)cc3[nH]ccc23)n1 = 0

----------
Tested on: MV4-11 (leukemia)
Assay: Cell proliferation inhibition in vitro, CellTiter-Glo, MV4-11
Assay type: cell-based
Settings: Homo sapiens; MV4-11 cells, 120 hours, CellTiter-Glo; read-out: MV4-11/IC50/μM
Description: By detecting the effect of compounds on cell activity in vitro in tumor cell lines TOV21G (ovarian cancer) and MV4-11 (leukemia), the inhibitory effect of compounds on cell proliferation was studied in this assay. […] MV-4-11 cells were cultured in IMDM medium (containing 20% of FBS). […] 100 μL of solution was transferred from each well to a 96-well blank plate, and the luminescence value was read by Biotek Synergy HI multifunctional microplate reader. […]
PARAMETER MEASURED: IC50 (µM)

CCc1cncc(-n2nc(C)c(-c3cc(N4CCOC[C@H]4C)nc(-c4cc(F)cc5[nH]ccc45)n3)c2C)c1 = 0.801
Cc1nn(-c2cncc(C(F)(F)F)c2)c(C)c1-c1cc(N2CCOC[C@H]2C)nc(-c2cc(F)cc3[nH]ccc23)n1 = 2.2
Cc1c(-c2cc(N3CCOC[C@H]3C)nc(-c3ccnc4[nH]ccc34)n2)c(C(F)(F)F)nn1-c1cncc(F)c1 = 0.528
Cc1nn(-c2cncc(F)c2)c(C)c1-c1cc(N2CCOC[C@H]2C)nc(-n2c(N)nc3ccccc32)n1 = 0.253
CNc1nc2ccccc2n1-c1nc(-c2c(C)nn(-c3ccc(=O)[nH]c3)c2C)cc(N2CCOC[C@H]2C)n1 = 0.157
COc1cncc(-n2nc(C)c(-c3cc(N4CCOC[C@H]4C)nc(-c4cc(F)cc5[nH]ccc45)n3)c2C)c1 = 0.658
CNc1nc2ccccc2n1-c1nc(-c2c(C)nn(-c3cncc(C(N)=O)c3)c2C)cc(N2CCOC[C@H]2C)n1 = 0.287
